target.of.assay: PD-1 (UniProt Q15116 25-167, limits assumed)
Sequence (Q15116 25-167 limits assumed): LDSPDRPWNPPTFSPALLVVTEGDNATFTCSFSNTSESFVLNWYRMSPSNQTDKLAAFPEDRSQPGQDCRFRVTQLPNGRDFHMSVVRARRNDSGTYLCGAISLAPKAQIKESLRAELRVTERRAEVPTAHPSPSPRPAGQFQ
test.protocol: ELISA; S13 on the Cys
readout: binding activity, % of wild type (%)
All answers are understood in %, so give the number only.

anti-PD-1 antibody 2 HC Ser75Cys (antibody, human IgG4 S228P, kappa, V domains shown, arm on Cys75 as named in each row) VH: QVQLVESGGGVVQPGRSLRLDCKASGITFSNSGMHWVRQAPGKGLEWVAVIWYDGSKRYYADSVKGRFTISRDNCKNTLFLQMNSLRAEDTAVYYCATNDDYWGQGTLVTVSS VL: EIVLTQSPATLSLSPGERATLSCRASQSVSSYLAWYQQKPGQAPRLLIYDASNRATGIPARFSGSGSGTDFTLTISSLEPEDFAVYYCQQSSNWPRTFGQGTKVEIKR | 14.6

// below: binding activity, % of wild type requested for another binder
Recorded binding activity, % of wild type (binder anti-PD-1 antibody 2 HC Ser17Cys (antibody, human IgG4 S228P, kappa, V domains shown, arm on Cys17 as named in each row) VH: QVQLVESGGGVVQPGRCLRLDCKASGITFSNSGMHWVRQAPGKGLEWVAVIWYDGSKRYYADSVKGRFTISRDNSKNTLFLQMNSLRAEDTAVYYCATNDDYWGQGTLVTVSS VL: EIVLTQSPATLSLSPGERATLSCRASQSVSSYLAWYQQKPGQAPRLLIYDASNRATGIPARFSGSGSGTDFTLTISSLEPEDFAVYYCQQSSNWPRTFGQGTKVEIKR ): 42.4
